Target: T1, hAng2 (Homo sapiens, UniProt O15123)
T1 sequence (O15123 19-496): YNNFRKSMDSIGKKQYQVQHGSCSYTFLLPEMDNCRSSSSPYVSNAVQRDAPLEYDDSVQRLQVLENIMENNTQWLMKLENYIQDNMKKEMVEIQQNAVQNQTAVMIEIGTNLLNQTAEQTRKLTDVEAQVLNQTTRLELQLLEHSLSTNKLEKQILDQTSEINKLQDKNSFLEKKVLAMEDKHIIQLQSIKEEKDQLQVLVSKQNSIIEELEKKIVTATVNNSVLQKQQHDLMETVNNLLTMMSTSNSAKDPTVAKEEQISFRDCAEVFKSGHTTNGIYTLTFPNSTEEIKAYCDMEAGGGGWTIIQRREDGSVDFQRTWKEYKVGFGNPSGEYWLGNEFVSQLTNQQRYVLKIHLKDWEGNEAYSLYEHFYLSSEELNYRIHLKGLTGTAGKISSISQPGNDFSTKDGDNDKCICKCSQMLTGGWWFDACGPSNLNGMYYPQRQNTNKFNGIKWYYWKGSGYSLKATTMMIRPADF
Test: OCTET affinity of mouse monoclonal anti-Ang2 antibodies against hAng2
Details: hAng2 fixed on AR2G biosensor, 1:1 binding model
recorded_endpoint: Koff (s⁻¹)
Write the answer as a number in s⁻¹, unit excluded.

Looking up 4B9: mouse monoclonal anti-Ang2 antibody; VH SEQ ID NO: 9, VL SEQ ID NO: 11; hybridoma KCLRF-BP-00418 (antibody, V domains shown, Heavy Chain Variable Region; Light Chain Variable Region, mouse monoclonal anti-Ang2 antibody; hybridoma KCLRF-BP-00418) VH: EVQLVESGGGLVKPGGSLKLSCAASGFTFSDYYMYWVRQTPEKRLEWVATISVGGSFTYYPDSVKGRFTISRDNAKNNLYLQMSSLKSEDTAMYYCARDWGLRPWFVYWGQGTLVTVSA VL: DIVMTQSHKFMSTSVGDRVSITCKASQDVSTAVAWYQQKPGQSPKLLIYWASTRHTGVPDRFTGSGSGTDYTLTISSVQAEDLALYYCQQHYSTPPTFGSGTKLEIK , I see its Koff listed as 5.04e-07
